meta.source: patent US20230365537A1

# measurement.target: human recombinant Aurora A (Homo sapiens (Human), UniProt O14965)
# Sequence (O14965 whole entry): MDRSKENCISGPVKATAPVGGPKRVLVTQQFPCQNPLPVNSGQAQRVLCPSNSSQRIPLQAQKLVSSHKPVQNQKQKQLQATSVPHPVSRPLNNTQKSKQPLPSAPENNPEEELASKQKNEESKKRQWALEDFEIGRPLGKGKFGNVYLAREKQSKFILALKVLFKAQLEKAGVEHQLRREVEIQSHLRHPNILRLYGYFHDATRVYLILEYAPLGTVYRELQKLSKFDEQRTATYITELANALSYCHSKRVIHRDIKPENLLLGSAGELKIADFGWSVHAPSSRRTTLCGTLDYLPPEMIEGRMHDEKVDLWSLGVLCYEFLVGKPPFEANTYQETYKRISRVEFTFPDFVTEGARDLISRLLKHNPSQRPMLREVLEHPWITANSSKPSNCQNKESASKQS
# procedure.summary: Aurora A Kinase Biochemical Assay (ADP-Glo)
# experimental.context: ratio of Aurora A IC50 to PLK4 IC50 (selectivity)
measurement.label: [Aurora A IC50 (nM)]/[PLK4 IC50 (nM)]

Please review the following examples before continuing.
> print(dat)
                            chemical.smiles  observed.value
1  COc1ccc2c(c1)[C@]1(C[C@H]1c1ccc3c(Nc4ccc5c(c4OC)CN(C)C5=O)n[nH]c3c1)C(=O)N2        723.9761
2  COc1ccc2c(c1)[C@]1(C[C@H]1c1ccc3c(Nc4ccc(C(=O)N5CCOCC5)nc4OC)n[nH]c3c1)C(=O)N2        534.2169
3  COc1ccc2c(c1)[C@]1(C[C@H]1c1ccc3c(Nc4ncnc(N5CC(O)C5)c4Cl)n[nH]c3c1)C(=O)N2        2542.642
4  COc1ccc2c(c1)[C@]1(C[C@H]1c1ccc3c(Nc4ncnc(N5CCS(=O)(=O)CC5)c4OC)n[nH]c3c1)C(=O)N2        1504.212
5  COc1ccc2c(c1)[C@]1(C[C@H]1c1ccc3c(Nc4cc(C)ncc4OC)n[nH]c3c1)C(=O)N2        1414.623

A = CCOc1nc(C(=O)N(C)C)cnc1Nc1n[nH]c2cc([C@@H]3C[C@@]34C(=O)Nc3ccc(OC)cc34)ccc12
B = COc1ccc2c(c1)[C@]1(C[C@H]1c1ccc3c(Nc4nc(N5CC(O)C5)ncc4OC)n[nH]c3c1)C(=O)N2
Inquiry: Of A and B , whose reported [Aurora A IC50 (nM)]/[PLK4 IC50 (nM)] is the larger number? API: response body contains the label of the selected item.
Reply text: A
(A: 3385.3211, B: 590.1482)

###

# measurement.target: human recombinant PLK4 (Homo sapiens (Human))
# procedure.summary: PLK4 Biochemical Assay (ADP-Glo)
# experimental.context: 0.5 nM PLK4, 8.0 µM ATP, 4.7 µM MBP, 6 hours at RT
pIC50: −log10 of the molar value.
measurement.label: pIC50

Please review the following examples before continuing.
> print(dat)
                                   molecule  measurement.label  observed.value
1  COc1ccc2c(c1)[C@]1(C[C@H]1c1ccc3c(Nc4nc(C5CCOC5)ncc4OC)n[nH]c3c1)C(=O)N2 (single isomer, unassigned) [Example 200]              pIC50            8.49
2  COc1ccc2c(c1)[C@]1(C[C@H]1c1ccc3c(Nc4nc(N5CCC(F)(F)C5)ncc4OC)n[nH]c3c1)C(=O)N2              pIC50            8.87
3  COc1ccc2c(c1)[C@]1(C[C@H]1c1ccc3c(Nc4nc(C5CC5)ncc4Cl)n[nH]c3c1)C(=O)N2              pIC50            8.54
4  COc1ccc2c(c1)[C@]1(C[C@H]1c1ccc3c(Nc4ncc(S(=O)(=O)N(C)C)cc4OC)n[nH]c3c1)C(=O)N2              pIC50            9.09

1 = COc1ccc2c(c1)[C@]1(C[C@H]1c1ccc3c(Nc4nc(C(C)(C)O)ccc4OC)n[nH]c3c1)C(=O)N2
2 = COc1ccc2c(c1)[C@]1(C[C@H]1c1ccc3c(Nc4nc(C5CNC5)cnc4OC)n[nH]c3c1)C(=O)N2
3 = COc1ccc2c(c1)[C@]1(C[C@H]1c1ccc3c(Nc4nc(C)ncc4OCC4CC4)n[nH]c3c1)C(=O)N2
Inquiry: Exam item: list the entries in increasing order of pIC50. Present the labels in the sequence the task asks for.
Reply text: 2, 3, 1

###

# measurement.target: human recombinant Aurora A (Homo sapiens (Human))
# procedure.summary: Aurora A Kinase Biochemical Assay (ADP-Glo)
# experimental.context: ratio of Aurora A IC50 to PLK4 IC50 (selectivity)
measurement.label: [Aurora A IC50 (nM)]/[PLK4 IC50 (nM)]

> print(dat)
                                    compound                        measurement.target                      measurement.label  observed.value
 1  CCS(=O)(=O)c1cc(OC)c(Nc2n[nH]c3cc([C@@H]4C[C@@]45C(=O)Nc4ccc(OC)cc45)ccc23)cn1  human recombinant Aurora A (Homo sapiens (Human))  [Aurora A IC50 (nM)]/[PLK4 IC50 (nM)]       3488.1209
 2  COc1ccc2c(c1)[C@]1(C[C@H]1c1ccc3c(Nc4cc(C(=O)N(C)C)cnc4OC)n[nH]c3c1)C(=O)N2  human recombinant Aurora A (Homo sapiens (Human))  [Aurora A IC50 (nM)]/[PLK4 IC50 (nM)]       2415.5227
 3  COc1ccc2c(c1)[C@]1(C[C@H]1c1ccc3c(Nc4ncnc(N5CCOCC5)c4Cl)n[nH]c3c1)C(=O)N2  human recombinant Aurora A (Homo sapiens (Human))  [Aurora A IC50 (nM)]/[PLK4 IC50 (nM)]        4791.187
 4  COc1ccc2c(c1)[C@]1(C[C@H]1c1ccc3c(Nc4nc(N5CC[C@@H](F)C5)ncc4OC)n[nH]c3c1)C(=O)N2  human recombinant Aurora A (Homo sapiens (Human))  [Aurora A IC50 (nM)]/[PLK4 IC50 (nM)]        666.9347
 5  COc1ccc2c(c1)[C@]1(C[C@H]1c1ccc3c(Nc4nc(N(C)C)nc5c4CCC5)n[nH]c3c1)C(=O)N2  human recombinant Aurora A (Homo sapiens (Human))  [Aurora A IC50 (nM)]/[PLK4 IC50 (nM)]         92.2102
 6  COc1ccc2c(c1)[C@]1(C[C@H]1c1ccc3c(Nc4nc(C(C)C)ncc4Cl)n[nH]c3c1)C(=O)N2  human recombinant Aurora A (Homo sapiens (Human))  [Aurora A IC50 (nM)]/[PLK4 IC50 (nM)]       1388.1947
 7  CCOc1nc(S(=O)(=O)N(C)C)ccc1Nc1n[nH]c2cc([C@@H]3C[C@@]34C(=O)Nc3ccc(OC)cc34)ccc12  human recombinant Aurora A (Homo sapiens (Human))  [Aurora A IC50 (nM)]/[PLK4 IC50 (nM)]       1004.7743
 8  COc1ccc2c(c1)[C@]1(C[C@H]1c1ccc3c(Nc4ncc(S(C)(=O)=O)nc4OC)n[nH]c3c1)C(=O)N2  human recombinant Aurora A (Homo sapiens (Human))  [Aurora A IC50 (nM)]/[PLK4 IC50 (nM)]        307.7159
 9  COc1ccc2c(c1)[C@]1(C[C@H]1c1ccc3c(Nc4nccc5c4OC[C@H]5CO)n[nH]c3c1)C(=O)N2 (single isomer, unassigned)  human recombinant Aurora A (Homo sapiens (Human))  [Aurora A IC50 (nM)]/[PLK4 IC50 (nM)]        893.3126
10  CNC(=O)c1ccc(Nc2n[nH]c3cc([C@@H]4C[C@@]45C(=O)Nc4ccc(OC)cc45)ccc23)c(OC)n1  human recombinant Aurora A (Homo sapiens (Human))  [Aurora A IC50 (nM)]/[PLK4 IC50 (nM)]       2416.5931

I = COc1ccc2c(c1)[C@]1(C[C@H]1c1ccc3c(Nc4cc(C(C)(C)O)cnc4OC)n[nH]c3c1)C(=O)N2
II = COc1ccc2c(c1)[C@]1(C[C@H]1c1ccc3c(Nc4ncccc4OC)n[nH]c3c1)C(=O)N2
III = CCS(=O)(=O)c1ccc(Nc2n[nH]c3cc([C@@H]4C[C@@]45C(=O)Nc4ccc(OC)cc45)ccc23)c(OC)n1
IV = COc1ccc2c(c1)[C@]1(C[C@H]1c1ccc3c(Nc4nc(Cl)nc5ccoc45)n[nH]c3c1)C(=O)N2
Inquiry: Exam item: list the entries in increasing order of [Aurora A IC50 (nM)]/[PLK4 IC50 (nM)]. Present the labels in the sequence the task asks for.
Reply text: IV, III, II, I
(IV: 111.2559, III: 273.2595, II: 1145.911, I: 2759.6376)

###

# measurement.target: human recombinant PLK4 (Homo sapiens (Human), UniProt O00444)
# Sequence (O00444 whole entry): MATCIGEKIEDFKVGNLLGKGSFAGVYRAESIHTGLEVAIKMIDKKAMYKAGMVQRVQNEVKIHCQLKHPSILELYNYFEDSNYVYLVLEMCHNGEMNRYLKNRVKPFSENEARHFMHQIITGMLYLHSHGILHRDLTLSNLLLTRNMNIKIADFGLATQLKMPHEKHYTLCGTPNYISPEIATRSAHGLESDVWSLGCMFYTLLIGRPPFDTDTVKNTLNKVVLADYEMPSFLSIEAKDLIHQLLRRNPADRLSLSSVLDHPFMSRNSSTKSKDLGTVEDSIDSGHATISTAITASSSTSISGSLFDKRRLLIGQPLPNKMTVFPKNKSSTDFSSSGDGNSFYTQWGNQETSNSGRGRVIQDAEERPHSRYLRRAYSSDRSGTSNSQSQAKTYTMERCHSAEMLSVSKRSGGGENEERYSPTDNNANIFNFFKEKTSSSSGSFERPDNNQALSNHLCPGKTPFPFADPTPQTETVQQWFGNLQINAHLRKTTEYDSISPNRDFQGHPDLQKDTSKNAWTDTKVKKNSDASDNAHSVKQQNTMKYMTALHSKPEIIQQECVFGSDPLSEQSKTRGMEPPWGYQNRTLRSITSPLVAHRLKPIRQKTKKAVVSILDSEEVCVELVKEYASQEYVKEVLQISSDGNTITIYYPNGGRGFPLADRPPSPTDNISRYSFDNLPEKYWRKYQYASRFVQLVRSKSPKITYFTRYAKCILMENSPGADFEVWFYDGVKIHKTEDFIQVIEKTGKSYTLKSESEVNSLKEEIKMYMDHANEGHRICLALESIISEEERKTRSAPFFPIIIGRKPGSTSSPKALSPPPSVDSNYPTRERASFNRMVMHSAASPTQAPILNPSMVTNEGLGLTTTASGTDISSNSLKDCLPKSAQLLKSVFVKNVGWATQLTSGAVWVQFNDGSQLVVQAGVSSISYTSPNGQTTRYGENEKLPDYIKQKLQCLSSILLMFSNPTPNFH
# procedure.summary: PLK4 Biochemical Assay (ADP-Glo)
# experimental.context: 0.5 nM PLK4, 8.0 µM ATP, 4.7 µM MBP, 6 hours at RT
pIC50: −log10 of the molar value.
measurement.label: pIC50

Please review the following examples before continuing.
> print(dat)
                            chemical.smiles  measurement.label  observed.value
1  COc1ccc2c(c1)[C@]1(C[C@H]1c1ccc3c(Nc4ccc(C(=O)NCC5CC5)nc4OC)n[nH]c3c1)C(=O)N2              pIC50            8.61
2  COc1ccc2c(c1)[C@]1(C[C@H]1c1ccc3c(Nc4nc(N5CCC5)ncc4OC)n[nH]c3c1)C(=O)N2              pIC50            8.71
3  COc1ccc2c(c1)[C@]1(C[C@H]1c1ccc3c(Nc4cc5cccnc5cc4OC)n[nH]c3c1)C(=O)N2              pIC50            8.66
4  COc1ccc2c(c1)[C@]1(C[C@H]1c1ccc3c(Nc4nc(C)nc(N5CCS(=O)(=O)CC5)c4Cl)n[nH]c3c1)C(=O)N2              pIC50            8.64

P = COc1ccc2c(c1)[C@]1(C[C@H]1c1ccc3c(Nc4nc(C5CC5)nc(N5C[C@@H](C)O[C@@H](C)C5)c4OC)n[nH]c3c1)C(=O)N2
Q = COc1cnc(C)nc1Nc1n[nH]c2cc([C@@H]3C[C@@]34C(=O)Nc3ccc(C(F)(F)F)cc34)ccc12
R = COc1ccc2c(c1)[C@]1(C[C@H]1c1ccc3c(Nc4ncnc(N5CCC5)c4OC)n[nH]c3c1)C(=O)N2
Inquiry: Put the entries in order of pIC50, starting with the largest number. Present the labels in the sequence the task asks for.
Reply text: P, R, Q
